Parameter: HepSE_Combined Scores. Scope: all listed entries.
Tested on: Hepatotoxicity

substance	HepSE_Combined Scores
NYSTATIN	0

Reported HepSE_Combined Scores (Hepatotoxicity) for entry `IVERMECTIN` is 0

Reported HepSE_Combined Scores (Hepatotoxicity) for entry `HEPARIN` is 1

Reported HepSE_Combined Scores (Hepatotoxicity) for entry `HYDROXOCOBALAMIN` is 0

Reported HepSE_Combined Scores (Hepatotoxicity) for entry `UROFOLLITROPIN` is 0

Reported HepSE_Combined Scores (Hepatotoxicity) for entry VITAMIN B12 is 0

---

Heads up, these compounds all have DILI positive/negative values measured for Hepatotoxicity.
Lab note: record the figure alone, no unit after it.

Consider the reported DILI positive/negative for these compounds:
compound	reading
COc1ccc(C(=O)NCc2cccnc2)cc1C(=O)NCc1cccnc1 [PICOTAMIDE]	0
Cc1nnc(NS(=O)(=O)c2ccc(N)cc2)s1 [SULFAMETHIZOLE]	1
CC(=O)Nc1ccc(O)cc1 [ACETAMINOPHEN]	1
O[C@H]1[C@H](O)[C@@H](O)[C@H](O)[C@@H](O)[C@H]1O [INOSITOL]	0
C=C1c2cccc(O)c2C(=O)C2=C(O)[C@]3(O)C(=O)C(C(N)=O)=C(O)[C@@H](N(C)C)[C@@H]3[C@@H](O)[C@H]12 [METHACYCLINE]	1

Reported DILI positive/negative (Hepatotoxicity) for entry O=C1OCCN1/N=C/c1ccc([N+](=O)[O-])o1 [FURAZOLIDONE] is 1

---

Heads up, these molecules all have HepSE_Combined Scores values measured for Hepatotoxicity.
Lab note: record the figure alone, no unit after it.

Consider the reported HepSE_Combined Scores for these molecules:
molecule	reading
CN(C)CCc1c[nH]c2ccc(C[C@H]3COC(=O)N3)cc12 [ZOLMITRIPTAN]	2
CC1COc2c(N3CCN(C)CC3)c(F)cc3c(=O)c(C(=O)O)cn1c23 (configuration not stated) [OFLOXACIN]	6

Short answer for CN(C)[C@@H]1C(O)=C(C(N)=O)C(=O)[C@@]2(O)C(O)=C3C(=O)c4c(O)cccc4[C@@](C)(O)[C@H]3[C@H](O)[C@@H]12 [OXYTETRACYCLINE] : HepSE_Combined Scores was 0

Short answer for Cn1c(=O)c2[nH]cnc2n(C)c1=O.Cn1c(=O)c2[nH]cnc2n(C)c1=O.NCCN [AMINOPHYLLINE] : HepSE_Combined Scores was 0

Short answer for OC(CCN1CCCCC1)(c1ccccc1)C1CC2C=CC1C2 (configuration not stated) [BIPERIDEN] : HepSE_Combined Scores was 0

Short answer for CN(C)CCc1c[nH]c2ccc(CS(=O)(=O)N3CCCC3)cc12 [ALMOTRIPTAN] : HepSE_Combined Scores was 0

Short answer for CC(O)(P(=O)(O)O)P(=O)(O)O [ETIDRONIC ACID] : HepSE_Combined Scores was 0

---

Parameter: HepSE_liver function tests abnormal. Scope: all listed entries.
System: Hepatotoxicity
Lab note: record the figure alone, no unit after it.

Consider the reported HepSE_liver function tests abnormal for these compounds:
compound	HepSE_liver function tests abnormal
OCc1cc(C(O)CNCCCCCCOCCCCc2ccccc2)ccc1O (stereo not given)	0
CC(=O)OCC(CCn1cnc2cnc(N)nc21)COC(C)=O	1
C[N+]1(C)CCCC(OC(=O)C(O)(c2ccccc2)c2ccccc2)C1.[Br-] (stereo not given) [MEPENZOLATE BROMIDE]	0
COc1ccc(OC)c(C(O)CNC(=O)CN)c1 (stereo not given)	0
CNC(=C[N+](=O)[O-])NCCSCc1csc(CN(C)C)n1	0
C=C1C[C@@H]2[C@H](CC[C@]3(C)C(=O)CC[C@@H]23)[C@@]2(C)C=CC(=O)C=C12	0
COC(=O)C(c1ccccc1)C1CCCCN1 (stereo not given) [METHYLPHENIDATE]	1
C=CC1=C(C(=O)O)N2C(=O)[C@@H](NC(=O)/C(=N\OCC(=O)O)c3csc(N)n3)[C@H]2SC1	0

Short answer for CC1(C)C(C=C(Cl)Cl)C1C(=O)OCc1cccc(Oc2ccccc2)c1 (stereo not given) : HepSE_liver function tests abnormal was 0

Short answer for `C=CC[N+]1([C@H]2C[C@H]3[C@@H]4CC[C@H]5C[C@H](O)[C@@H](N6CCOCC6)C[C@]5(C)[C@H]4CC[C@]3(C)[C@H]2OC(C)=O)CCCC1` : HepSE_liver function tests abnormal was 0

Short answer for `CCN1CCN(C(=O)N[C@@H](C(=O)N[C@@H]2C(=O)N3C(C(=O)O)=C(CSc4nnnn4C)CS[C@H]23)c2ccc(O)cc2)C(=O)C1=O` : HepSE_liver function tests abnormal was 0

Short answer for CC(=O)O.CCNC(=O)[C@@H]1CCCN1C(=O)[C@H](CCCNC(=N)N)NC(=O)[C@H](CC(C)C)NC(=O)[C@@H](CC(C)C)NC(=O)[C@H](Cc1ccc(O)cc1)NC(=O)[C@H](CO)NC(=O)[C@H](Cc1c[nH]c2ccccc12)NC(=O)[C@H](Cc1c[nH]cn1)NC(=O)[C@@H]1CCC(=O)N1 [LEUPROLIDE ACETATE] : HepSE_liver function tests abnormal was 1

Short answer for `CC(C)C[C@H]1C(=O)N2CCC[C@H]2[C@]2(O)O[C@](NC(=O)[C@@H]3C=C4c5cccc6[nH]c(Br)c(c56)C[C@H]4N(C)C3)(C(C)C)C(=O)N12` : HepSE_liver function tests abnormal was 0

Short answer for O=C1C(CC[S+]([O-])c2ccccc2)C(=O)N(c2ccccc2)N1c1ccccc1 (stereo not given) : HepSE_liver function tests abnormal was 0

Short answer for COc1ccc(CC2c3cc(OC)c(OC)cc3CC[N+]2(C)CCC(=O)OCCCCCOC(=O)CC[N+]2(C)CCc3cc(OC)c(OC)cc3C2Cc2ccc(OC)c(OC)c2)cc1OC (stereo not given) : HepSE_liver function tests abnormal was 0

Short answer for `CCNC(=O)CCC/C=C\C[C@@H]1[C@@H](/C=C/[C@@H](O)CCc2ccccc2)[C@H](O)C[C@@H]1O` : HepSE_liver function tests abnormal was 1

Short answer for CN(Cc1cnc2nc(N)nc(N)c2n1)c1ccc(C(=O)N[C@@H](CCC(=O)O)C(=O)O)cc1 [METHOTREXATE] : HepSE_liver function tests abnormal was 0

Short answer for `Nc1nc(O)c2ncn(COC(CO)CO)c2n1` : HepSE_liver function tests abnormal was 0

Short answer for COc1ccc(Cl)cc1C(=O)NCCc1ccc(S(=O)(=O)NC(=O)NC2CCCCC2)cc1 [GLYBURIDE] : HepSE_liver function tests abnormal was 0

Short answer for `CCC[C@@]1(CCc2ccccc2)CC(O)=C([C@H](CC)c2cccc(NS(=O)(=O)c3ccc(C(F)(F)F)cn3)c2)C(=O)O1` : HepSE_liver function tests abnormal was 1

Short answer for C[C@@H](O[C@H]1OCCN(Cc2n[nH]c(=O)[nH]2)[C@H]1c1ccc(F)cc1)c1cc(C(F)(F)F)cc(C(F)(F)F)c1 [APREPITANT] : HepSE_liver function tests abnormal was 0

---

Parameter: HepSE_Combined Scores. Scope: all listed entries.
Tested on: Hepatotoxicity
Lab note: record the figure alone, no unit after it.

compound	HepSE_Combined Scores
CC(CCc1ccccc1)NCC(O)c1ccc(O)c(C(N)=O)c1 (stereo not drawn)	4

Reported HepSE_Combined Scores (Hepatotoxicity) for entry `c1cnc2cc3c(cc2n1)[C@@H]1CNC[C@H]3C1` is 1

Reported HepSE_Combined Scores (Hepatotoxicity) for entry COc1ccc(OC)c(C(O)CNC(=O)CN)c1 (stereo not drawn) is 0

---

Heads up, these compounds all have HepSE_jaundice values measured for Hepatotoxicity.

Consider the reported HepSE_jaundice for these compounds:
compound	testSystem	measureName	reading
CCC(=O)C(CC(C)N(C)C)(c1ccccc1)c1ccccc1 (stereo not given) [METHADONE]	Hepatotoxicity	HepSE_jaundice	0
Cc1ccc(Cl)c(Nc2ccccc2C(=O)O)c1Cl [MECLOFENAMIC ACID]	Hepatotoxicity	HepSE_jaundice	1
Cc1nnc(SCC2=C(C(=O)O)N3C(=O)[C@@H](NC(=O)Cn4cnnn4)[C@H]3SC2)s1 [CEFAZOLIN]	Hepatotoxicity	HepSE_jaundice	0
Cc1nc(Nc2ncc(C(=O)Nc3c(C)cccc3Cl)s2)cc(N2CCN(CCO)CC2)n1.O [DASATINIB]	Hepatotoxicity	HepSE_jaundice	0

Now for a further compound.
Short answer for CCc1c(C)[nH]c2c1C(=O)C(CN1CCOCC1)CC2 (stereo not given) [MOLINDONE] : HepSE_jaundice was 0

---

Heads up, these molecules all have HepSE_cholelithiasis values measured for Hepatotoxicity.
Lab note: record the figure alone, no unit after it.

Short answer for Cc1oncc1C(=O)Nc1ccc(C(F)(F)F)cc1 [LEFLUNOMIDE] : HepSE_cholelithiasis was 1

Short answer for `CC(O)(P(=O)(O)O)P(=O)(O)O` : HepSE_cholelithiasis was 0

Short answer for `N#Cc1ccc(C(c2ccc(C#N)cc2)n2cncn2)cc1` : HepSE_cholelithiasis was 0

Short answer for COc1cc2nc(N3CCN(C(=O)C4CCCO4)CC3)nc(N)c2cc1OC (centres undefined) : HepSE_cholelithiasis was 0

Short answer for `CCCCCCCCCCCCCCCCCCCCCCO` : HepSE_cholelithiasis was 0
